Numbers sourced from paper PMC3804602.

Target: T1, T2 mechanosensitive channel from Thermoplasma volcanium, tag free (Thermoplasma volcanium)
T1 construct: TVN0821, gene amplified from genomic DNA (DSM 4299 [GSS1*]); 297 amino acids per monomer; Cloned into pNIC28-Bsa4 (TEV site) and pET46 (Enterokinase site); In detergent (0.03 % DDM); also called T2 channel; tag free T2-channel; source: E. coli C43(DE3), purified (DDM solubilised, IMAC, tag cleavage, second IMAC, gel filtration); not shown: His-tag, N-terminal, cleaved
T1 chain: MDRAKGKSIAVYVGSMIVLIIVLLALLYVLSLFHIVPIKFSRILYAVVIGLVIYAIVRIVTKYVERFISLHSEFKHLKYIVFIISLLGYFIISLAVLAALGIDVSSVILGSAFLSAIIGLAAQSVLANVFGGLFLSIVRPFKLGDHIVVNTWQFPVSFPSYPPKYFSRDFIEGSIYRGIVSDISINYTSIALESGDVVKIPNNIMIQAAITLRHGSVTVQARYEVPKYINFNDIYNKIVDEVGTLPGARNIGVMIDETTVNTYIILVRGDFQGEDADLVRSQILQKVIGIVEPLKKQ
Assay: SPR; BIAcore 3000, 25 °C, 20 mM sodium phosphate pH 7.4, 150 mM NaCl, 0.03 % DDM; T2 channel amine-coupled on CM5 (1500 - 2000 RU); nanobodies 0.35 - 86.1 nM injected in triplicates; global fit to a simple bimolecular model, KD = kd/ka
Settings: both partners purified
observable: kon (M⁻¹ s⁻¹)
Give the quantity in M⁻¹ s⁻¹, number only.

Worked cases, kon given:
nanobody 12 (VHH, pHEN6 vector; also called Nb 12; CA-number 3394; source: E. coli WK6 periplasm, purified (IMAC, gel filtration); not shown: His-tag, C-terminal, kept) VHH: QVQLQESGGGLVQPGGSLRLSCVASGSIFSINAMGWYRQAPGKQRDLVAVITSRGSTNYADSVKGRFTISRDNAKNTTYLQMNSLKPEDTAVYYCNADLAAYYSGTYYDTLLYWGQGTQVTVSS = 650000
nanobody 16 (VHH, pHEN6 vector; also called Nb 16; CA-number 3398; source: E. coli WK6 periplasm, purified (IMAC, gel filtration); not shown: His-tag, C-terminal, kept) VHH: QVQLQESGGGLVQPGGSLTLSCAASGSPFSFGAMGWYRQAPGKQRELVAIITSGGSTNYADSVKGRFTVSRDNAKNTVYLQMNSLKPEDTAVYYCYHQTAPVADVTWGQGTQVTVSS = 750000

Entry nanobody 3 (VHH, pHEN6 vector; also called Nb 3; CA-number 3382; source: E. coli WK6 periplasm, purified (IMAC, gel filtration); not shown: His-tag, C-terminal, kept) VHH: QVQLQESGGGLVQPGGSLRLSCAASGFTLDYYAIGWFRQTPGKEREGVSCISSSDDSTYYADSVKGRFTISRDNAKNTVYLQMNSLKPEDTAVYYCATGWACTLVAGTNGMDYWGKGTQVTVSS — recorded kon = 960000

Entry nanobody 17 (VHH, pHEN6 vector; also called Nb 17; CA-number 3399; source: E. coli WK6 periplasm, purified (IMAC, gel filtration); not shown: His-tag, C-terminal, kept) VHH: QVQLQESGGGLVQPGGSLRLSCAASGSIFSINSMDWYRQAPGKQRELVATITSGGSTNYADSVKGRFTISRDNGKNTVYLQMNSLKPEDTAVYYCHAVVSTRGGYWGQGTQVTVSS — recorded kon = 710000
